# EC50 per entry
test target: T1, human CD19 on CD19(+) NALM6 acute lymphoid leukemia cells (UniProt P15391 20-556)
T1 chain: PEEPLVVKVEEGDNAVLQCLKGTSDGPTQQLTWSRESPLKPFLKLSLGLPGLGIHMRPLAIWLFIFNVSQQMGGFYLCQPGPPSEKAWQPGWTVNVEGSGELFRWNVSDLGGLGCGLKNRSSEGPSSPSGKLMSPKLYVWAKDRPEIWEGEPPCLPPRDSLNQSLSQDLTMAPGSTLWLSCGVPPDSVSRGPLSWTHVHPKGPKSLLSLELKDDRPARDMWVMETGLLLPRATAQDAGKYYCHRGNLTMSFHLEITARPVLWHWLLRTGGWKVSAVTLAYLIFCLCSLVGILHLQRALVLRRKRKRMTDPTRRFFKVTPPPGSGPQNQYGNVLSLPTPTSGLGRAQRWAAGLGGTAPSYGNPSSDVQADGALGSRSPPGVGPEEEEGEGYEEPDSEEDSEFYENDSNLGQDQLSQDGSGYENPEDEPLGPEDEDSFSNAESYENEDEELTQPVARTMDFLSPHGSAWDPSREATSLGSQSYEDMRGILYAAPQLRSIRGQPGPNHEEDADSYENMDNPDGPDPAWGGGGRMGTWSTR
measurement protocol: FACS

| binder | EC50 [µg/mL] |
| --- | --- |
| L3+H2b (antibody, V domains shown) VH: QVQLQESGPGLVKPSETLSLTCTVSGVSLPDYGVSWIRQPPGKGLEWLGVIWGSETTNYNPSLKSRVTISKDTSKNQFSLKLSSLTAADTAVYYCAKHYYYGGSYAMDYWGQGTSVTVSS VL: DIQMTQSTSSLSASVGDRVTITCRASQDISKYLNWYQQKPGKAVKLLIYHTSRLHSGVPSRFSGSGSGTDYTFTISSLQPEDIATYYCQQGNTLPYTFGGGTKLEIT | 0.28 |
| L2+H6b (antibody, V domains shown) VH: QVQLQESGPGLVKPSETLSLTCTVSGVSLPDYGVSWIRQPPGKGLEWLGVIWGSETTYYNPSLKSRVTISVDNSKNQFSLKLSSVTAADTAVYYCAKHYYYGGSYAMDYWGQGTSVTVSS VL: DIQMTQSPSSLSASVGDRVTITCQASQDISKYLNWYQQKPGKAVKLLIYHTSRLHSGVPSRFSGSGSGTDYTLTISSLQPEDIATYFCQQGNTLPYTFGGGTKLEIT | 0.08 |
| L1+H4 (antibody, V domains shown) VH: QVQLQESGPGLVKPSETLSLTCTVSGVSLPDYGVSWIRQPPGKGLEWIGVIWGSETTNYNPSLKSRVTISVDNSKNQFSLKLSSLTAADTAVYYCAKHYYYGGSYAMDYWGQGTSVTVSS VL: DIQMTQSPSSLSASVGDRVTITCRASQDISKYLNWYQQKPGKAVKLLIYHTSRLHTGVPSRFSGSGSGTDYTLTISSLQPEDIATYFCQQGNTLPYTFGGGTKLEIT | 0.25 |
| L1+H1b (antibody, V domains shown) VH: QVQLQESGPGLVKPSETLSVTCTVSGVSLPDYGVSWIRQPPGKGLEWIGVIWGSETTYYNPSLKSRVTISVDTSKNQVSLKLSSVTAADTAVYYCAKHYYYGGSYAMDYWGQGTSVTVSS VL: DIQMTQSPSSLSASVGDRVTITCRASQDISKYLNWYQQKPGKAVKLLIYHTSRLHTGVPSRFSGSGSGTDYTLTISSLQPEDIATYFCQQGNTLPYTFGGGTKLEIT | 0.13 |
| L1+H8b (antibody, V domains shown) VH: QVQLQESGPGLVKPSETLSVTCTVSGVSLPDYGVSWIRQPPGKGLEWIGVIWGSETTYYNPSLKSRLTISKDTSKNQFSLKLSSVTAADTAVYYCAKHYYYGGSYAMDYWGQGTSVTVSS VL: DIQMTQSPSSLSASVGDRVTITCRASQDISKYLNWYQQKPGKAVKLLIYHTSRLHTGVPSRFSGSGSGTDYTLTISSLQPEDIATYFCQQGNTLPYTFGGGTKLEIT | 0.13 |

Data provenance is patent US20220177579A1.
